# assay.overview: logP by HPLC on reversed-phase column (C 18), EEC Directive 79/831 Annex V.A8
# Format: physicochemical
# condition.notes: HPLC reversed-phase C 18; 40° C.; 0.1% aqueous formic acid and acetonitrile, linear gradient 10% to 90% acetonitrile
measured.parameter: log p (HCOOH)

// worked examples, log p (HCOOH) included
CCN(C)C=Nc1ccc(-c2ccc(COC)cc2)cc1Cl; 1.65
CCN(C)C=Nc1ccc(-c2ccc(C(F)(F)F)cc2)cc1C; 2.17
CCN(C)C=Nc1cc(C)c(-c2ccc(COC)cc2)cc1C; 1.76
CCN(C)C=Nc1ccc(-c2ccc(C(C)=NOC)cc2)cc1C; 2.02
CCN(C)C=Nc1ccc(-c2cc(OC)c(OC)c(OC)c2)cc1C; 1.56
CCN(C)C=Nc1ccc(-c2ccc(Cl)c(C(F)(F)F)c2)cc1F; 2.15
CCc1cc(-c2ccc(C=NOC)cc2)ccc1N=CN(C)CC; 2.09
CCN(C)C=Nc1ccc(-c2ccc(OC)c(OC)c2)cc1C(F)(F)F; 1.71
CCN(C)C=Nc1cc(C)c(-c2ccc(C(C)(C)C)c(Cl)c2)cc1C; 2.85
CCN(C)C=Nc1cc(C)c(-c2ccc(Oc3ccccc3)cc2)cc1C; 2.56

[A] CCN(C)C=Nc1ccc(-c2cc(OC)c(OC)c(OC)c2)cc1Cl
[B] CCc1cc(-c2ccc(C(C)(C)C)cc2)ccc1N=CN(C)CC
Of A and B , which one carries the higher reported log p (HCOOH)? Write the label of whichever entry you select.
B
(B: 2.66, A: 1.58)

###

# assay.overview: logP by HPLC on reversed-phase column (C 18), EEC Directive 79/831 Annex V.A8
# Assay type: physicochemical
# condition.notes: HPLC reversed-phase C 18; 40° C.; 0.1% aqueous formic acid and acetonitrile, linear gradient 10% to 90% acetonitrile
# Description: Temperature: 40° C.; Mobile phases: 0.1% aqueous formic acid and acetonitrile; linear gradient from 10% acetonitrile to 90% acetonitrile. Calibration was carried out using unbranched alkan-2-ones (comprising 3 to 16 carbon atoms) with known logP values (determination of the logP values by the retention times using linear interpolation between two successive alkanones).
measured.parameter: log p (HCOOH)

// worked examples, log p (HCOOH) included
CCc1cc(-c2ccc(F)cc2)ccc1N=CN(C)CC; 1.79
CCN(C)C=Nc1ccc(-c2ccc(F)cc2)cc1C(F)(F)F; 1.93
CCN(C)C=Nc1ccc(-c2ccc(COC)cc2)cc1C(F)(F)F; 1.76

[I] C=CCN(C)C=Nc1cc(C)c(-c2ccc(C)c(Cl)c2)cc1C
[II] Cc1cc(-c2ccc(F)cc2)c(C)cc1N=C1NCCN1
Could you tell me which of these two has the smaller log p (HCOOH) figure? First: I Second: II Write the label of whichever entry you select.
II
(II: 1.72, I: 2.48)

[A] Cc1cc(-c2ccc([Si](C)(C)C)cc2)c(C)cc1N=CN1CCCCC1
[B] CCc1cc(-c2ccc(F)c(Cl)c2)ccc1N=CN(C)CC
[C] CCN(C)C=Nc1ccc(-c2ccc(OC)c(OC)c2OC)cc1F
Ascending by log p (HCOOH), please. Sort the labels as requested; that list is your answer.
C, B, A

###

# assay.overview: logP by HPLC on reversed-phase column (C 18), EEC Directive 79/831 Annex V.A8
# Type: physicochemical
# condition.notes: HPLC reversed-phase C 18; 40° C.; 0.1% aqueous formic acid and acetonitrile, linear gradient 10% to 90% acetonitrile
measured.parameter: log p (HCOOH)

CCN(C)C=Nc1ccc(-c2ccc(Cl)c(Cl)c2)cc1C; 2.21
CCN(C)C=Nc1ccc(-c2ccc(F)c(Cl)c2)cc1F; 1.78
CCN(C)C=Nc1cc(C)c(-c2ccc(OC)c(C)c2)cc1C; 2.05
CCN(C)C=Nc1ccc(-c2ccc(Br)cc2)cc1C(F)(F)F; 2.24
CCN(C)C=Nc1ccc(-c2ccc(Cl)cc2Cl)cc1F; 2.05
CCc1cc(-c2ccc(C(F)(F)F)cc2)ccc1N=CN(C)CC; 2.20
CCCN(C)C=Nc1cc(C)c(-c2ccc(C(C)C)cc2)cc1C; 2.70
Cc1cc(-c2ccc(Cl)cc2)c(C)cc1N=C1NCCCN1; 2.08

###

# assay.overview: logP by HPLC on reversed-phase column (C 18), EEC Directive 79/831 Annex V.A8
# Format: physicochemical
# condition.notes: HPLC reversed-phase C 18; 40° C.; 0.1% aqueous formic acid and acetonitrile, linear gradient 10% to 90% acetonitrile
measured.parameter: log p (HCOOH)

// worked examples, log p (HCOOH) included
CCN(C)C=Nc1ccc(-c2ccc(C(F)(F)F)cc2)cc1F [Compound 26]; 1.87
CCN(C)C=Nc1ccc(-c2ccc(OC)cc2)cc1Cl [Compound 70]; 1.71
CCN(C)C=Nc1ccc(-c2ccc(C=NOC)cc2)cc1F [Compound 77]; 1.73
CCN(C)C=Nc1cc(C)c(-c2ccc(C(C)(C)C)cc2)cc1Cl [Compound 106]; 2.71
CCN(C)C=Nc1ccc(-c2ccc(Cl)c(C(F)(F)F)c2)cc1Cl [Compound 18]; 2.19
CCN(C)C=Nc1cc(C)c(-c2ccc(Cl)c(C(F)(F)F)c2)cc1Cl [Compound 107]; 2.30
CCN(C)C=Nc1cc(OC)c(-c2ccc(OC)c(Cl)c2)cc1OC [Compound 97]; 1.83
CCON=C(C)c1ccc(-c2cc(C)c(N=CN(C)CC)cc2C)cc1 [Compound 139]; 2.55
CCN(C)C=Nc1ccc(-c2cccc(Cl)c2)c(Cl)c1 [Compound 96]; 1.92
CCN(C)C=Nc1ccc(-c2ccc(F)c(F)c2F)cc1C(F)(F)F [Compound 79]; 2.29

[A] CCN(C)C=Nc1cc(C)c(-c2cccc(C(C)C)c2)cc1C [Compound 178]
[B] CCc1cc(-c2ccc(COC)cc2)ccc1N=CN(C)CC [Compound 61]
Of A and B , which one carries the higher reported log p (HCOOH)? Write the label of whichever entry you select.
A
(A: 2.42, B: 1.67)

[I] CCN(C)C=Nc1ccc(-c2cc(OC)c(OC)c(OC)c2)cc1C(F)(F)F [Compound 75]
[II] C=CCN(C)C=Nc1cc(C)c(-c2ccc(C(C)C)cc2)cc1C [Compound 157]
Of I and II , which one carries the higher reported log p (HCOOH)? Write the label of whichever entry you select.
II

[I] CCN(C)C=Nc1cc(C)c(-c2ccc(C(C)C)cc2)cc1C [Compound 155]
[II] CCN(C)C=Nc1ccc(-c2ccc(OC)c(OC)c2)cc1Cl [Compound 74]
Of I and II , which one carries the higher reported log p (HCOOH)? Write the label of whichever entry you select.
I
(I: 2.34, II: 1.54)

###

# assay.overview: logP by HPLC on reversed-phase column (C 18), EEC Directive 79/831 Annex V.A8
# Format: physicochemical
# condition.notes: HPLC reversed-phase C 18; 40° C.; 0.1% aqueous formic acid and acetonitrile, linear gradient 10% to 90% acetonitrile
measured.parameter: log p (HCOOH)

CCN(C)C=Nc1cc(C)c(-c2ccc(C3CCCCC3)cc2)cc1C; 3.18
CCN(C)C=Nc1ccc(-c2ccc(COC)cc2)cc1C; 1.59
Cc1cc(-c2ccc(C(F)(F)F)c(Cl)c2)c(C)cc1N=CN1CCCCC1; 2.78
CCN(C)C=Nc1cc(C)c(-c2ccc(Cl)c(C)c2)cc1C; 2.27
CCc1cc(-c2ccc(Cl)cc2Cl)ccc1N=CN(C)CC; 2.26
CCN(C)C=Nc1ccc(-c2ccc(F)cc2)cc1C; 1.84
CCN(C)C=Nc1ccc(-c2ccc(F)c(C)c2)cc1C; 2.04
CCN(C)C=Nc1cc(C)c(-c2ccc(Cl)c(C(F)(F)F)c2)cc1C; 2.40
CC(C)N(C)C=Nc1ccc(-c2cccc(Cl)c2)c(Cl)c1; 2.04
CCc1cc(-c2ccc(F)c(F)c2)ccc1N=CN(C)CC; 2.00
Cc1cc(-c2ccc(Cl)cc2)c(F)cc1N=CN(C)C(C)C; 2.22
CCN(C)C=Nc1cc(F)c(-c2ccc(Cl)cc2)cc1C; 2.23
CCN(C)C=Nc1ccc(-c2ccc(Cl)c(C(F)(F)F)c2)cc1C(F)(F)F; 2.90
CCc1cc(-c2ccc(OCc3ccccc3)cc2)ccc1N=CN(C)CC; 2.39
CCN(C)C=Nc1ccc(-c2ccc(Cl)cc2C)cc1C; 2.23
